System: LOX IMVI melanoma
Experiment: NCI-60 one-dose screen, 48 h (100 = growth as untreated, 0 = no growth, -100 = all killed)
Conditions: 10 µM unless noted
Description: Growth inhibition of the LOX IMVI human tumor cell line is measured as a screen for anti-cancer activity. Cells are grown in 96 well plates and exposed to the test compound for 48 hours. Compounds are tested at a single concentration, which is 10^-5 M for most compounds. The reported endpoint is percent growth (GI% or GIPRCNT), where numbers from 0 - 100% represent growth inhibition, and numbers from -100% - 0 represent cell death. For example, a value of 40 represents 60% growth inhibition. […]
About 83,000 compounds went through this panel and 20% of them were active in at least one assay; those are over-represented in the sample as a whole.
metric name: growth (%)
Entry rule: numbers only, all in %.

Some entries whose results are on file:
molecule	growth (%)
CC[C@@]1(O)C[C@H](OC2CC(N(C)C)C(O)C(C)O2)c2c(O)c3c(c(O)c2[C@H]1OC1CC(N(C)C)C(O)C(C)O1)C(=O)c1cccc(O)c1C3=O (some centres undefined)	-36.2
C[C@]12CC[C@H](O)CC1=CC[C@@H]1[C@@H]2CC[C@]2(C)C(=O)CC[C@@H]12	102
C[C@H]1CCC/C=C/[C@@H]2C[C@H](O)C[C@H]2[C@H](O)/C=C/C(=O)O1	-69.4

Next:
If you can, please state the reported growth value of Cc1ccc(C(=O)OC(C(=O)O)C(OC(=O)c2ccc(C)cc2)C(=O)O)cc1 (centres undefined) (tested in a mixture with another compound) .
56.2
